Target: MOPr (Homo sapiens, UniProt P35372)
Construct: host or cells: CHO
Sequence (P35372 whole entry): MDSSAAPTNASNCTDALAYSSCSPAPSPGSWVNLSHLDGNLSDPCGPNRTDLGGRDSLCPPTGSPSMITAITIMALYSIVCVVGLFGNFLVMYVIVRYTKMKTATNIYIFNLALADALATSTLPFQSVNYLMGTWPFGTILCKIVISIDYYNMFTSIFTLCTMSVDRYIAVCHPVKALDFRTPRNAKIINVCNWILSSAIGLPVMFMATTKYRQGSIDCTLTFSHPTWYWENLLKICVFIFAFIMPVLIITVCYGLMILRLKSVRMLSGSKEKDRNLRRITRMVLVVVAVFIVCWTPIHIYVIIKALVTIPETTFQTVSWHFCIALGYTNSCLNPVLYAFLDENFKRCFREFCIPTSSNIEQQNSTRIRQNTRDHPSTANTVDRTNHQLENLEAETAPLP
Assay: biochemical
Type: binding
Conditions: Gibb's free energy converted from experimental Ki
quantity_name: MOPr ΔG (kcal/mol)

{"columns": ["cpd_smiles", "quantity_name", "quantitative_result"],
 "data": [
  ["CN1CC[C@]23c4c5ccc(O)c4O[C@H]2C(=O)/C(=C/c2ccc(O)cc2)C[C@@]3(O)[C@H]1C5", "MOPr ΔG", -10.49],
  ["CN1CC[C@]23c4c5ccc(O)c4O[C@H]2C(=O)/C(=C/c2ccc(F)cc2)C[C@@]3(O)[C@H]1C5", "MOPr ΔG", -10.57],
  ["CN1CC[C@]23c4c5ccc(O)c4O[C@H]2C(=O)/C(=C/c2ccc4ccccc4c2)C[C@@]3(O)[C@H]1C5", "MOPr ΔG", -12.20],
  ["CN1CC[C@]23c4c5ccc(O)c4O[C@H]2C(=O)/C(=C/c2ccc(Br)cc2)C[C@@]3(O)[C@H]1C5", "MOPr ΔG", -10.16],
  ["COc1ccc(/C=C2\\C[C@@]3(O)[C@H]4Cc5ccc(O)c6c5[C@@]3(CCN4C)[C@@H](O6)C2=O)cc1", "MOPr ΔG", -10.92],
  ["CN1CC[C@]23c4c5ccc(O)c4O[C@H]2C(=O)/C(=C/c2ccc([N+](=O)[O-])cc2)C[C@@]3(O)[C@H]1C5", "MOPr ΔG", -12.42]
]}
